Source listed as PubChem BioAssay (NCI).

- System: EKVX NSCLC
- MEASUREMENT NOTES: NCI-60 one-dose screen, 48 h
- ASSAY CONDITIONS: 10 µM unless noted
About 83,000 compounds went through this panel and 20% of them were active in at least one assay; those are over-represented in the sample as a whole. The source made the active and inactive calls. How the source made its calls: active means growth percent below 10; inactive means the rest.
Field 'call' accepts active, inactive

1. CN(C)c1ccc2nc3ccc(=[N+](C)C)c([N+](=O)[O-])c-3sc2c1 : inactive

So what was the verdict on `COc1ccc(-c2nn(C(=O)c3cc(OC)c(OC)c(OC)c3)c3cc(N)ccc23)cc1` in this test?
inactive

Would you mind telling me which call this test gave `C=C1CC[C@@]2(C#N)[C@H]3[C@H](CC[C@@H]2C)[C@@H](C)C[C@@H](CC(C)(C)C#N)[C@H]13` ?
inactive

What outcome does the record of this test show for `FC(F)(F)c1cc(Nc2ccc3c(OCCCN4CCOCC4)cccc3n2)ccc1Cl` ?
inactive

Name the outcome recorded for `COC(=O)CCC/C=C\C[C@H]1C=CC(=O)/C1=C/C[C@@H](O)CCc1cccc(C(F)(F)F)c1` in the assay.
active

// param item: `COc1c(B(O)O)cc(F)cc1-c1nc2ccc3[nH]ncc3c2c2c1CCCC2` ; yields the recorded call
inactive

What outcome does the record of this test show for `CNC(=O)c1cc(-n2ccc3cc(NC(=O)c4ccc(N5CCOCC5)c(C(F)(F)F)c4)ccc32)ccn1` ?
inactive

What did this assay record as the result for `O=C1/C(=C/c2ccc(F)cc2)Sc2c(Br)cccc21` ?
inactive

I'd appreciate the recorded outcome for `CCN(CC)CCNc1nc2ccccc2c2c(=O)c3cc(Cl)ccc3sc12` from this test.
inactive

----------
- Tested on: SF-539 CNS
- MEASUREMENT NOTES: NCI-60 one-dose screen, 48 h
- ASSAY CONDITIONS: 10 µM unless noted
Compounds without any hit were thinned out: in the full panel of roughly 83,000, 20% have a hit. Calls of active or inactive are those of the source. How the source made its calls: active means growth percent below 10; inactive means the rest.
I would appreciate it if you answered using one of these outcomes: active, inactive

Outcome logged for `Cc1cc(=O)[nH]c(=O)n1Cc1cn(-c2c3ccccc3nc3ccccc23)nn1` in this assay:
inactive

Hi, do you know how `CS(=O)(=O)N(c1cc(-c2ccc3ncnc(Nc4ccc(F)c(Cl)c4)c3c2)cnc1Cl)S(C)(=O)=O` came out in this test?
inactive

Outcome? O=C1NC(=O)C(Cn2cnc3ccccc32)N1 (centres undefined)
inactive

I would be grateful if you could indicate the recorded call for `CCCCC[C@H](O)C/C=C1/C(=O)C=C[C@@H]1C/C=C\CCCC(=O)O` .
inactive

Per the assay record, what outcome was assigned to `COc1cc(C(=O)c2cc(C)c3[nH]c4ccc(C)cc4c3c2C)cc(OC)c1OC` ?
active

----------
- System: NCI/ADR-RES ovarian
- MEASUREMENT NOTES: NCI-60 one-dose screen, 48 h (100 = growth as untreated, 0 = no growth, -100 = all killed)
- ASSAY CONDITIONS: 10 µM unless noted
About 83,000 compounds went through this panel and 20% of them were active in at least one assay; those are over-represented in the sample as a whole.
Binarize growth at 90%; below is MET, at or above is NOT MET.

1. COc1cc(/C=C/c2c(C(C)=O)c(C)nc3ccccc23)cc(OC)c1OC : MET
2. CCN(CC)Cc1cc(Nc2c3ccc(Cl)cc3nc3ccc(OC)cc23)ccc1O : MET
3. COc1cc2oc(-c3ccc(O)cc3)cc(=O)c2c(O)c1-c1c(OC)cc(O)c2c(=O)cc(-c3ccc(O)cc3)oc12 : MET

Please state whether growth is below 90% for `C=C1C(=O)O[C@H]2[C@H]1CC/C(COC(=O)CSCC(=O)OC/C1=C/CC[C@@]3(C)O[C@H]3[C@H]3OC(=O)C(=C)[C@@H]3CC1)=C\CC[C@@]1(C)O[C@@H]21`
MET

A record lists O=C(CS(=O)c1oc(-c2cccs2)nc1S(=O)(=O)c1ccc(Br)cc1)c1ccccc1 (stereo not drawn) . Is its growth below 90%?
NOT MET

----------
Measured growth values are reported for all entries that follow.
- Tested on: MOLT-4 leukemia
- MEASUREMENT NOTES: NCI-60 one-dose screen, 48 h (100 = growth as untreated, 0 = no growth, -100 = all killed)
- ASSAY CONDITIONS: 10 µM unless noted
This is part of a sample that, as a whole, favours compounds with a hit. Of some 83,000 tested, about 20% had one in any assay.
Express the result in % but write the number alone.

1) COc1ccc2c(c1)nc(NNC(=O)c1cnccn1)c1cccn12 : 5.36
2) O=C(/C=C/c1ccc([N+](=O)[O-])o1)NNC(=O)c1cc2ccccc2cc1O : 3.05
3) Nc1nc2ccccc2c2c(=O)c3cc(F)ccc3sc12 : 101
4) Cc1[nH]c(C(=O)Nc2ccc(C(=O)NCCN)cc2OC(C)C)c(Cl)c1Cl : -27.7
5) N[C@@H](Cc1ccccc1)[C@@H](O)C(=O)NCc1ccc(F)cc1 : 109
6) O=c1c2cc(F)ccc2sc2c(NCCCNCCO)nc3ccc(F)cc3c12 : 18.8
7) CNc1nc2c(s1)C(c1cccc(F)c1)CC(=O)N2 (stereo unspecified) : 103
8) COc1ccc(-c2nc3sc(-c4ccccc4)cn3n2)cc1 : 50.7

Find the measured growth of `CC1=C(C)C(=O)C(Nc2cccc(C(=O)OC(C)(C)C)c2)=C(Br)C1=O` and report it.
12.5

Given the compound `NCCNc1nc2ccccc2c2c(=O)c3cccc(F)c3sc12` , write its reported growth.
7.98

Let me know recorded growth for CN(C)CCN1CCN(c2ncccc2C2Nc3ccccc3-n3cccc32)CC1 (stereo unspecified) , thanks.
98.2

----------
- Test system: SK-OV-3 ovarian
- MEASUREMENT NOTES: NCI-60 one-dose screen, 48 h (100 = growth as untreated, 0 = no growth, -100 = all killed)
- ASSAY CONDITIONS: 10 µM unless noted
The panel holds about 83,000 compounds, 20% with a hit somewhere; the sample as a whole holds those more often.
REPORTED ENDPOINT: growth (%)
Note: unit % is implicit; provide only the numeric part.

Examples with their reported growth follow.
1. O=C(O)CCC(=O)Nc1nnc(-c2ccccc2)s1 : 95.6
2. CC1=C(C)C(=O)C(Nc2cccc(C(=O)OC(C)(C)C)c2)=C(Br)C1=O : 93.2
3. Cc1ccc(C(=O)NN2C(=O)CSC2c2ccc(Cl)cc2)cn1 (stereo not given) : 97.1
4. COc1ccc2nc(NC(=O)c3cccnc3Nc3ccc(S(N)(=O)=O)cc3)sc2c1 : 116

Retrieve growth measured for `CCOC(=O)c1cn2ncnc(Oc3ccc(NC(=O)NCCN(CC)CC)c(Cl)c3)c2c1C` and print it.
92.1

----------
- Test system: NCI/ADR-RES ovarian
- MEASUREMENT NOTES: NCI-60 one-dose screen, 48 h (100 = growth as untreated, 0 = no growth, -100 = all killed)
- ASSAY CONDITIONS: 10 µM unless noted
This is part of a sample that, as a whole, favours compounds with a hit. Of some 83,000 tested, about 20% had one in any assay. Activity calls are given as the source filed them. Rule for the calls: active = growth percent below 10; inactive = the rest.
Recorded growth values for a group of molecules are listed next.

Some molecules with recorded growth:
1) CC(=O)OC[C@H]1OC(Sc2sc(C(=O)c3ccc(C)cc3)c(N)c2-c2nc3ccccc3s2)[C@H](OC(C)=O)[C@@H](OC(C)=O)[C@@H]1OC(C)=O (some centres undefined) : 62.9% (inactive)
2) CCN(CC)S(=O)(=O)c1ccc(NC(=O)CSc2nnc(C)n2-c2ccccc2)cc1 : 99.2% (inactive)

Supply measured growth of `CN(C)CCS(=O)(=O)Nc1cc(-c2ccc3ncc(C#N)c(Nc4ccc(F)c(Cl)c4)c3c2)cnc1Cl` in your reply.
63.7% (inactive)

State its growth for this molecule: COc1cc(C(=O)N2N=C(c3ccc(S(C)(=O)=O)cc3)CC2c2ccco2)cc(OC)c1OC (centres undefined)
63.1% (inactive)

Provide growth value for the following molecule: `COc1cc(C(=O)/C=C/c2sc(Cl)nc2Cl)cc(OC)c1OC`
76.3% (inactive)

Return the recorded growth value; entry: `CCOC(=O)c1cn2ncnc(Oc3ccc(NC(=O)NCCN4CCN(C)CC4)c(Cl)c3)c2c1C`
90.8% (inactive)

Give growth for the following molecule: OC(COc1ccccc1Cl)CN1CCN(c2cccc(Cl)c2)CC1 (centres undefined)
113% (inactive)

Return growth (reported value) for this molecule: `COc1cccc(Oc2ccccc2NC(=O)CNC(=O)c2cccc3ccccc23)c1`
15.3% [5 µM] (inactive)

For the molecule `CCS(=O)(=O)c1ncnc2nc[nH]c12` , give its measured growth value.
104% (inactive)

----------
- Tested on: SF-295 CNS
- MEASUREMENT NOTES: NCI-60 one-dose screen, 48 h
- ASSAY CONDITIONS: 10 µM unless noted
Compounds without any hit were thinned out: in the full panel of roughly 83,000, 20% have a hit. Activity calls are given as the source filed them. Rule for the calls: active = growth percent below 10; inactive = the rest.
A correct response names exactly one class from active, inactive

1) c1cc2nc(-c3cn[nH]c3)c3c(c2cc1-c1cn[nH]c1)C1CCC3C1 (centres undefined) : inactive

Recorded call for `O=[N+]([O-])c1ccccc1NCSc1ccc(Cl)cc1` ?
inactive

Please state the recorded outcome for this compound: `COc1ccc(CNC(=O)C(=O)[C@H](Cc2ccccc2)NC(=O)c2[nH]c3ccccc3c(=O)c2C)cc1`
inactive

What is the recorded call for this compound in the test? `COc1ccc2c(c1)nc(NNC(=O)c1cnccn1)c1cccn12`
inactive

Answer briefly: the call reported for `O=C1c2cccc3cccc(c23)C(=O)N1Nc1nc(N2CCOCC2)nc(N2CCN(c3ccccc3)CC2)n1` in this assay.
inactive
